Values compiled from PubChem BioAssay (NCI).

Could you please report measured TGI for the items listed next?
# System: CCRF-CEM leukemia
# MEASUREMENT DESCRIPTION: NCI tumour cell line growth inhibition, 48 h

response.value for COc1cc(C2CC(c3ccc(C)cc3)=NN2C(C)=O)ccc1Oc1ccnc2cc(Cl)ccc12 (configuration not stated) (field: TGI) = > 100 µM

response.value for "COc1cc(Oc2cnc3cc(N)cc(N)c3n2)cc(OC)c1OC" (field: TGI) = > 100 µM

response.value for "NS(=O)(=O)OC[C@H]1O[C@@H](n2cnc3c(N[C@H]4CCc5ccccc54)ncnc32)[C@H](O)[C@@H]1O" (field: TGI) = > 100 µM

response.value for "O=C(N/C(=C\c1cc(Cl)ccc1Cl)c1nc2ccccc2[nH]1)c1ccccc1" (field: TGI) = 88.3 µM

response.value for "COc1cc(OC)cc(-c2n[nH]nc2-c2ccc3c(c2)OCO3)c1" (field: TGI) = > 100 µM

response.value for "O=C(CCCCCCCCC(=O)OCCCn1cc(C(=O)NC(=O)OCc2ccccc2)c(=O)[nH]c1=O)OCCCn1cc(C(=O)NC(=O)OCc2ccccc2)c(=O)[nH]c1=O" (field: TGI) = > 100 µM

response.value for "CCSc1sc(-c2ccc(C)cc2)nc1[P+](c1ccccc1)(c1ccccc1)c1ccccc1" (field: TGI) = 2.14 µM

response.value for "Cc1cc(S(=O)(=O)Nc2nc(N)n(-c3ccccc3)n2)c(S)cc1Cl" (field: TGI) = > 100 µM

response.value for COc1cc(C2C3=C(COC3=O)N(CCO)c3cc4c(cc32)OCCO4)cc(OC)c1O (configuration not stated) (field: TGI) = > 50 µM

response.value for "c1ccc(C[P+]2(c3ccccc3)CCCCC2)cc1" (field: TGI) = > 100 µM

response.value for "O=C(NCCc1ccc(F)cc1)c1cc(/C=C/c2cc(O)ccc2O)ccc1O" (field: TGI) = > 100 µM

response.value for COc1ccc2c(c1)C(CCN)C(=O)N2 (configuration not stated) (field: TGI) = > 100 µM

response.value for "O=C(O)/C=C/C(=O)Nc1cccc2c1-c1ccccc1C2=O" (field: TGI) = > 28.3 µM

response.value for CC([C@H]1CCC2C3CCC4C(=O)C(NC=O)=CC[C@]4(C)C3CC[C@@]21C)N(C)C (some centres not stated) (field: TGI) = 18.7 µM

response.value for "Nc1c(Cl)ncnc1NCC1(CO)CCC1" (field: TGI) = > 100 µM

response.value for "CCNc1nc2ccccc2nc1NCC" (field: TGI) = > 100 µM

response.value for "C/C(=N\NC(=S)N/N=C(\C)c1ccccn1)c1ccccn1" (field: TGI) = 1.7 µM

response.value for Cc1cc(C)c2c(=O)n(CC(O)CN3CCN(c4ncccn4)CC3)sc2n1 (configuration not stated) (field: TGI) = > 100 µM

response.value for "O=C1c2cc(Br)ccc2-c2c1c1ccccc1c(=O)n2CCCCl" (field: TGI) = > 100 µM

response.value for O=C(CC1Sc2ccccc2NC1=O)Nc1ccc([N+](=O)[O-])cc1[N+](=O)[O-] (configuration not stated) (field: TGI) = 39.6 µM

response.value for CCC(C)CNC1=C(NC(C)=O)C(=O)c2ccccc2C1=O (configuration not stated) (field: TGI) = > 100 µM

response.value for "COC(=O)c1ccc2n[se]nc2c1" (field: TGI) = > 100 µM

----------
# Test system: HOP-92 NSCLC
# MEASUREMENT DESCRIPTION: NCI tumour cell line growth inhibition, 48 h; in the data active = GI50 below about 0.43 µM; inactive = the rest
Just give me one of these, please: active, inactive

Q) What is the recorded call for this molecule in the test? "COc1cc(OC)cc(-c2n[nH]nc2-c2ccc3c(c2)OCO3)c1"
A) active

Q) What is the recorded call for this molecule in the test? CC([C@H]1CCC2C3CCC4C(=O)C(NC=O)=CC[C@]4(C)C3CC[C@@]21C)N(C)C (stereo partly drawn)
A) inactive

Q) What is the recorded call for this molecule in the test? "O=c1cc(N2CCOCC2)oc2c(-c3ccccc3)cccc12"
A) inactive

----------
# System: SF-295 CNS
# MEASUREMENT DESCRIPTION: NCI tumour cell line growth inhibition, 48 h
Could you please report measured TGI for the items listed next?

response.value for "O=C1NC(N2CCOCC2)=N/C1=C\c1ccccc1" (field: TGI) = > 100 µM

response.value for "O=C(c1ccc(Cl)cc1)N(C(=S)N1CCN(c2ccccc2)CC1)C1CCCCC1" (field: TGI) = > 100 µM

response.value for N#CC1=C(N)NC(=S)NC1c1ccc(-c2ccc(-c3nc4ccccc4s3)cc2)o1 (stereo not given) (field: TGI) = > 50 µM

response.value for "O=C(OCc1ccccc1[N+](=O)[O-])N1c2ccccc2[C@@]23O[C@]24CCC[C@H]3C#C/C=C\C#C[C@H]14" (field: TGI) = > 100 µM

response.value for c1cc(C2O[C@H]3CCCN3[C@@H]2c2ccncc2)ccn1 (stereo not given in full) (field: TGI) = > 100 µM

----------
# System: HCC-2998 colon
# MEASUREMENT DESCRIPTION: NCI tumour cell line growth inhibition, 48 h
READOUT NAME: GI50

response.value for "N=C(N)c1ccc(-c2ccc(-c3ccco3)o2)cc1" (field: GI50) = 1.85 µM

response.value for COc1cc(C2CC(c3ccc(C)cc3)=NN2C(C)=O)ccc1Oc1ccnc2cc(Cl)ccc12 (centres undefined) (field: GI50) = > 100 µM

response.value for O=C(NCCc1ccccc1)C(c1csc2ccccc12)N(C(=O)CCl)c1ccc(-c2cnco2)cc1 (centres undefined) (field: GI50) = 1.69 µM

response.value for "O=C(CCCCCn1c2ccccc2c2c3c(c4c5ccccc5[nH]c4c21)C(=O)N(O)C3=O)N1CCOCC1" (field: GI50) = 1.85 µM

response.value for "O=C1c2cc(Br)ccc2-c2c1c1ccccc1c(=O)n2CCCCl" (field: GI50) = 14.1 µM

response.value for "Oc1ccc(Br)cc1CN1CCN(Cc2ccc(Cl)cc2)CC1" (field: GI50) = 30.8 µM

response.value for COC(=O)C1=C(O)C(C(=O)OC)[C@@]2(O)[C@@H](C(=O)OC)C(c3ccccc3C(F)(F)F)C[C@@H]1[C@@H]2C(=O)OC (some centres undefined) (field: GI50) = 14.2 µM

response.value for "Cc1c(Br)cccc1NC(=O)c1sc2nc3c(cc2c1N)CN(Cc1ccccc1)CC3" (field: GI50) = 1.6 µM

response.value for "COC(=O)c1ccc2c(c1)CCN2C(=O)c1cc2c(cc1Br)OCO2" (field: GI50) = 21.2 µM

----------
Could you please report measured TGI for the items listed next?
# System: SNB-75 CNS
# MEASUREMENT DESCRIPTION: NCI tumour cell line growth inhibition, 48 h

response.value for "CCSc1sc(-c2ccc(C)cc2)nc1[P+](c1ccccc1)(c1ccccc1)c1ccccc1" (field: TGI) = 0.802 µM

response.value for "COc1ccc(/C=N/N=C(N)N)c(C(=O)O)c1OC" (field: TGI) = > 100 µM

response.value for "CC(=O)NC1=NC(=O)/C(=C/c2ccc(Cl)cc2Cl)N1C" (field: TGI) = > 100 µM

response.value for O=C1N2CCN=C2c2ccccc2C1(O)c1ccccc1 (stereo unspecified) (field: TGI) = > 100 µM

response.value for "CN1CCN(c2nc(NCCNc3ccnc4cc(Cl)ccc34)c3ccccc3n2)CC1" (field: TGI) = 4.96 µM

response.value for COC1=CC(=O)c2c(O)c3c(c(O)c2C1=O)CC(C)(O)OC3 (stereo unspecified) (field: TGI) = > 67.6 µM

response.value for "COc1cccc(-n2cnc3c(N/N=C/c4ccncc4)ncnc32)c1" (field: TGI) = > 25 µM

response.value for "O=C(O)c1cc(/C=C/c2ccc(O)c(O)c2)ccc1O" (field: TGI) = > 100 µM

response.value for "Cc1cc(CC(O)(C(F)(F)F)C(F)(F)F)cc(CC(O)(C(F)(F)F)C(F)(F)F)n1" (field: TGI) = 6.58 µM

response.value for "CCCCC(=O)Nc1ccc2cc(C(=O)OC)c(=O)[nH]c2n1" (field: TGI) = > 100 µM

response.value for "O=C(/C=C(\O)C(=O)O)/C=C(\O)c1ccc(Cl)cc1" (field: TGI) = > 100 µM

----------
# System: HS 578T breast
# MEASUREMENT DESCRIPTION: NCI tumour cell line growth inhibition, 48 h; in the data active means GI50 below about 0.43 µM; inactive means the rest
Just give me one of these, please: TRUE = active, FALSE = inactive

Q) What is the recorded call for this molecule in the test? "CC(=O)c1c[nH]c2ccc(-c3ccnc(Nc4ccc(NC(=O)c5cccc(F)c5)c(CN5CCOCC5)c4)n3)cc12"
A) TRUE

Q) What is the recorded call for this molecule in the test? Nc1nc(Cl)cc2c1ncn2C1OC(CO)C(O)C1O (stereo unspecified)
A) FALSE

Q) What is the recorded call for this molecule in the test? "COc1ccc(-c2ccc(/C=N/n3cnn(CN4CCN(C)CC4)c3=S)o2)c([N+](=O)[O-])c1"
A) FALSE

Q) What is the recorded call for this molecule in the test? "COc1ccc(/C(C#N)=C/c2nc3c(N4CCOCC4)nc(Cl)nc3n2C)cc1OC"
A) TRUE

Q) What is the recorded call for this molecule in the test? "O=C(/C=C/c1ccco1)c1ccc(Nc2ccnc3cc(Cl)ccc23)cc1"
A) FALSE

Q) What is the recorded call for this molecule in the test? O=C(NCCc1ccccc1)C(c1csc2ccccc12)N(C(=O)CCl)c1ccc(-c2cnco2)cc1 (stereo unspecified)
A) FALSE
